- Species on record: Bos taurus
- MEASUREMENT_PROTOCOL: Inhibition of calf thymus topoisomerase 1 relative to Hoechst 33342
Measured Ratio accompanies every entry in the list below.

Guide cases for Ratio, answers given:
INSERT INTO results (structure_notation, observed_property, reported_result) VALUES
  ('Clc1nc2ccc(-c3nc4ccc(-c5nc6cc(Br)c(Br)cc6[nH]5)cc4[nH]3)cc2[nH]1', 'Ratio', 1),
  ('Cc1ccc(-c2nc3cc(-c4nc5cc(C#N)ccc5[nH]4)ccc3[nH]2)cc1', 'Ratio', 1);

Next, consider the following compound.
Task: Ratio for `COc1ccc(-c2nc3cc(-c4nc5cc(N6CCN(C)CC6)ccc5[nH]4)ccc3[nH]2)cc1` ?
Output: 1

====

Recorded Ratio values for a group of compounds are listed next.
- Species: Bos taurus
- MEASUREMENT_PROTOCOL: Inhibition of calf thymus topoisomerase 1 relative to Hoechst 33342

Use these answered entries as a reference point.
INSERT INTO measurements (structure_notation, reported_result) VALUES
  ('N#Cc1ccc2[nH]c(-c3ccc4[nH]c(-c5cccc6ccccc56)nc4c3)nc2c1', 10),
  ('c1nc2ccc(-c3nc4ccc(-c5nc6cc(N7CCCCC7)ccc6[nH]5)cc4[nH]3)cc2[nH]1', 0.5),
  ('COc1ccc(-c2nc3cc(-c4nc5cc(N(C)C)ccc5[nH]4)ccc3[nH]2)cc1', 1000),
  ('c1cc(-c2ccc3[nH]c(-c4ccc5[nH]c(-c6ccc7[nH]cnc7c6)nc5c4)nc3c2)ccn1', 2),
  ('Fc1ccc2[nH]c(-c3ccc4nc(-c5ccc6nc[nH]c6c5)[nH]c4c3)nc2c1', 0.05),
  ('COc1cc2nc(-c3ccc4nc(-c5ccc6nc[nH]c6c5)[nH]c4c3)[nH]c2cc1-c1ccccc1', 0.5);

Task: I am curious: what Ratio value has been reported for `Cc1cccc(-c2nc3cc(-c4nc5cc(N6CCN(C)CC6)ccc5[nH]4)ccc3[nH]2)c1` ?
Output: 1

Task: Give its Ratio value. Item: `Brc1ccc2[nH]c(-c3ccc4nc(-c5ccc6nc[nH]c6c5)[nH]c4c3)nc2c1`
Output: 1

Task: Please give the measured Ratio for this compound: `Cc1cccc(-c2nc3cc(-c4nc5cc(C#N)ccc5[nH]4)ccc3[nH]2)c1`
Output: 100

Task: For the compound `COc1ccc(-c2nc3cc(-c4nc5cc(N)ccc5[nH]4)ccc3[nH]2)cc1` , what Ratio is on record?
Output: 100

====

- Organism: Bos taurus
- MEASUREMENT_PROTOCOL: Inhibition of calf thymus topoisomerase 1 relative to Hoechst 33342
This section presents compounds with their documented Ratio values.

INSERT INTO measurements (structure_notation, reported_result) VALUES
  ('Cc1ccc(-c2nc3cc(-c4nc5cc(N6CCN(C)CC6)ccc5[nH]4)ccc3[nH]2)cc1', 1),
  ('Cc1ccc(-c2nc3cc(-c4nc5cc(C(N)=O)ccc5[nH]4)ccc3[nH]2)cc1', 10);

Proceeding to the next compound to report its Ratio.
Task: Which Ratio value belongs to `N#Cc1ccc2[nH]c(-c3ccc4[nH]c(-c5ccccc5)nc4c3)nc2c1` ?
Output: > 100
